B1: DCAF4 (parent)
chain: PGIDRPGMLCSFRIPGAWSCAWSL

# Variants of: B1
# assay-protocol: protein stability index of a GFP-peptide fusion (GPS, HEK-293T) (PSI 1-6); higher = more stable;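 also: lentivirally expressed fusions sorted by FACS into six bins by GFP to DsRed ratio, PSI derived from sequencing read proportions per bin multiplied by bin number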
# conditions-used: c terminus: a fixed tail appended
measurement-type: protein stability index
Form rule: numeric answer, no unit written next to it.

[
  {
    "seq": "PGIDRPGMLCSFRIPGAWSRAWSL [C20R]",
    "readout-number": 1.52
  },
  {
    "seq": "PCIDRPGMLCSFRIPGAWSCAWSL [G2C]",
    "readout-number": 3.1
  }
]

Request: Identify measured protein stability index associated with PGIDRPGMLCSFRIPGGWSCAWSL [A17G]
Response: 3.29

Request: Identify measured protein stability index associated with PGIDRPGMLCSFRIPGAWSCAWSD [L24D]
Response: 2.85

Request: Identify measured protein stability index associated with PGIDRPGMLCSFRIPGTWSCAWSL [A17T]
Response: 1.77

Request: Identify measured protein stability index associated with PGIDRPGMLCSFRIPGAWSCAWLL [S23L]
Response: 3.01

Request: Identify measured protein stability index associated with PGIDRPGMLMSFRIPGAWSCAWSL [C10M]
Response: 3.1

Request: Identify measured protein stability index associated with PGIDRPGMLCSFRIPGAWSCAWSE [L24E]
Response: 1.38

Request: Identify measured protein stability index associated with PGIDRPGMLCSFRIPIAWSCAWSL [G16I]
Response: 3.24

Request: Identify measured protein stability index associated with PGIDRPMMLCSFRIPGAWSCAWSL [G7M]
Response: 2.31

Request: Identify measured protein stability index associated with LGIDRPGMLCSFRIPGAWSCAWSL [P1L]
Response: 3.17

Request: Identify measured protein stability index associated with PGIDRPGMLCSFRIPGAWSCAWWL [S23W]
Response: 2.88

Request: Identify measured protein stability index associated with PGIDRPGMLCSFRIPEAWSCAWSL [G16E]
Response: 3.31

Request: Identify measured protein stability index associated with PGNDRPGMLCSFRIPGAWSCAWSL [I3N]
Response: 4.44
